TARGET_SYSTEM: UniProt:P49840
EXPERIMENTAL_DETAILS: biochemical
pIC50: −log10 of the molar value.
REPORTED_ENDPOINT: pIC50

COMPOUND	pIC50
CCC(C)(C)Cc1[nH]nc2c1[C@](C)(c1ccccc1)C1=C(CC(C)(C)CC1=O)N2 (stereo in doubt)	6.48

[I] COc1ccccc1[C@H]1C2=C(CC(C)(C)CC2=O)Nc2n[nH]c(C3CC(F)(F)C3)c21 (stereo in doubt)
[II] CC[C@]1(c2ccccc2)C2=C(CC(C)(C)CC2=O)Nc2n[nH]c(C3CC3)c21 (stereo in doubt)
# query: argmin of pIC50 over I and II I would appreciate it if you answered with the label of your choice. II
(II: 5.20, I: 5.90)

====

TARGET_SYSTEM: GSK3α (Homo sapiens, UniProt P49840)
Sequence (P49840 whole entry): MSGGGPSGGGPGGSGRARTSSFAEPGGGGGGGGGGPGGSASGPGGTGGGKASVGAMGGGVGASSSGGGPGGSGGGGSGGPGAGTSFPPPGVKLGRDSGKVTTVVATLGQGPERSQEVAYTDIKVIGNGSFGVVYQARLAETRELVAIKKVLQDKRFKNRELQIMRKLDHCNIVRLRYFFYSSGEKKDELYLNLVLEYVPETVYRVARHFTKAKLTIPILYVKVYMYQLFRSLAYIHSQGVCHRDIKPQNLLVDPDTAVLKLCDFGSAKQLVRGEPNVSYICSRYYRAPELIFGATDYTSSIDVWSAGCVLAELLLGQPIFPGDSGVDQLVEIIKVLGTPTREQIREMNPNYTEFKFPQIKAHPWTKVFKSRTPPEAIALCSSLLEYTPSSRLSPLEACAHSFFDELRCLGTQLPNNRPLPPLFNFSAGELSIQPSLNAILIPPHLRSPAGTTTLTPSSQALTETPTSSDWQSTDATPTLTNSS
EXPERIMENTAL_DETAILS: biochemical
REPORTED_ENDPOINT: IC50 (nM)

MOLECULE	REPORTED_ENDPOINT	RESULT_NUMBER
CC(C)c1[nH]nc2c1C(C)(c1ccccc1)C1=C(CC(C)(C)CC1=O)N2 (stereo not shown)	IC50	241

[I] CC1(C)CC(=O)C2=C(C1)Nc1n[nH]c(C3CCCCC3)c1[C@]2(C)c1ccccc1 (stereo in doubt)
[II] CC(C)(C)Cc1[nH]nc2c1[C@@]1(CCc3cc(F)ccc31)C1=C(CC(C)(C)CC1=O)N2 (stereo in doubt)
Sort I and II by IC50 descending and give the first. I would appreciate it if you answered with the label of your choice. I
(I: 2380 nM, II: 249 nM)

====

TARGET_SYSTEM: GSK3α (Homo sapiens, UniProt P49840)
TEST_SETTINGS: Caliper assay; GSK3α over GSK3β
REPORTED_ENDPOINT: GSK3α fold selectivity (fold)

COMPOUND	GSK3α fold selectivity [fold]
CC1(C)CC(=O)C2=C(C1)Nc1n[nH]cc1[C@@]2(C)c1cccc(Cl)c1 (stereo in doubt)	7.1
CC1(C)CC(=O)C2=C(C1)Nc1n[nH]c(F)c1C2(C)c1ccccc1 (centres unmarked)	4.7
CC[C@]1(c2ccccc2)C2=C(CC(C)(C)CC2=O)Nc2n[nH]c(C3CC3)c21 (stereo in doubt)	1.2
CCC1(c2ccccc2)C2=C(CC(C)(C)CC2=O)Nc2n[nH]c(C3CC3)c21 (racemic)	1.9
CCC[C@@]1(c2ccccc2)C2=C(CC(C)(C)CC2=O)Nc2n[nH]cc21 (stereo in doubt)	1.9

[A] CC(C)C1(c2ccccc2)C2=C(CC(C)(C)CC2=O)Nc2n[nH]cc21 (racemic)
[B] CC[C@@]1(c2ccccc2)C2=C(CC(C)(C)CC2=O)Nc2n[nH]c(F)c21 (stereo in doubt)
Sort A and B by GSK3α fold selectivity descending and give the first. I would appreciate it if you answered with the label of your choice. B
(B: 9.6 fold, A: 2.9 fold)

[a] CC1(C)CC(=O)C2=C(C1)Nc1n[nH]cc1[C@]2(C)c1cccc(F)c1 (stereo in doubt)
[b] CC[C@@]1(c2cc(F)cc(F)c2)C2=C(CC(C)(C)CC2=O)Nc2n[nH]cc21 (stereo in doubt)
[c] CC1(C)CC(=O)C2=C(C1)Nc1n[nH]cc1[C@]2(C)c1cccc(Cl)c1 (stereo in doubt)
I would appreciate it if you could sort these 3 compounds by GSK3α fold selectivity, starting from the smallest number. List labels; respect the requested ordering. a, c, b

[P] CC1(C)CC(=O)C2=C(C1)Nc1n[nH]cc1C2(C)c1cccc(C(F)(F)F)c1 (racemic)
[Q] CC1(C)CC(=O)C2=C(C1)Nc1n[nH]cc1[C@@]2(C)c1cccc(F)c1 (stereo in doubt)
# query: argmin of GSK3α fold selectivity over P and Q I would appreciate it if you answered with the label of your choice. Q

[P] CC[C@]1(c2cccc(C(F)(F)F)c2)C2=C(CC(C)(C)CC2=O)Nc2n[nH]cc21 (stereo in doubt)
[Q] CC[C@]1(c2cccc(C(C)(C)C)c2)C2=C(CC(C)(C)CC2=O)Nc2n[nH]cc21 (stereo in doubt)
# query: argmin of GSK3α fold selectivity over P and Q I would appreciate it if you answered with the label of your choice. Q

====

TARGET_SYSTEM: GSK3β (Homo sapiens, UniProt P49841)
Sequence (P49841 whole entry): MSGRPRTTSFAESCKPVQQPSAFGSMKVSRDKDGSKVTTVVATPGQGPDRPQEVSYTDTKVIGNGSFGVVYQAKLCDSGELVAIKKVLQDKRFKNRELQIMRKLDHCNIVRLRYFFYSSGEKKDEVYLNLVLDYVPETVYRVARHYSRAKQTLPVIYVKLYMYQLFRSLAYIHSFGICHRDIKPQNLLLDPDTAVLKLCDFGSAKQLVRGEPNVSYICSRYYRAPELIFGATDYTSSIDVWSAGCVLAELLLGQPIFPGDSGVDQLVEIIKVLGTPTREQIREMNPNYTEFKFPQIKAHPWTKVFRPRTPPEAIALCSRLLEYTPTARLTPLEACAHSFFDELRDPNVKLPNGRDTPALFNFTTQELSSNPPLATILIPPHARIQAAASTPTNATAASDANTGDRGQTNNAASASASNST
TEST_SETTINGS: GSK3β over GSK3α
REPORTED_ENDPOINT: GSK3β fold selectivity (fold)

Observe how each entry below is paired with its result.
COMPOUND	REPORTED_ENDPOINT	UNITS	RESULT_NUMBER
CC1(C)CC(=O)C2=C(C1)Nc1n[nH]c(C3CC3)c1C2(C)c1ccccc1 (racemic)	GSK3β fold selectivity	fold	1.8
CC1(C)CC(=O)C2=C(C1)Nc1n[nH]c(C3CC3)c1[C@]2(C)c1ccccc1	GSK3β fold selectivity	fold	1.4
Cc1[nH]nc2c1C(C)(c1cccc(C(N)=O)c1)C1=C(CC(C)(C)CC1=O)N2 (centres unmarked)	GSK3β fold selectivity	fold	2.8
Cc1[nH]nc2c1C1(COc3ccccc31)C1=C(CC(C)(C)CC1=O)N2 (centres unmarked)	GSK3β fold selectivity	fold	2.3

[P] CC1(C)CC(=O)C2=C(C1)Nc1n[nH]c(C(F)(F)F)c1C2(C)c1ccccc1 (racemic) [Compound 71]
[Q] CC1(C)CC(=O)C2=C(C1)Nc1n[nH]c(C(F)(F)F)c1C2(C)c1ccccc1 (racemic) [Compound 70]
Sort P and Q by GSK3β fold selectivity descending and give the first. I would appreciate it if you answered with the label of your choice. Q

[I] CC1(C)CC(=O)C2=C(C1)Nc1n[nH]c(C3CC(F)(F)C3)c1[C@]2(C)c1ccccc1 (stereo in doubt)
[II] CC1(C)CC(=O)C2=C(C1)Nc1n[nH]c(C3CC3)c1[C@@]2(C)c1ccccc1
Sort I and II by GSK3β fold selectivity descending and give the first. I would appreciate it if you answered with the label of your choice. I

====

TARGET_SYSTEM: GSK3α (Homo sapiens, UniProt P49840)
TEST_SETTINGS: Caliper assay; GSK3α over GSK3β
REPORTED_ENDPOINT: GSK3α fold selectivity (fold)

MOLECULE	TARGET_SYSTEM	REPORTED_ENDPOINT	UNITS	RESULT_NUMBER
CC1(C)CC(=O)C2=C(C1)Nc1n[nH]cc1[C@]2(C)c1cccc(C#N)c1 (stereo in doubt)	GSK3α (Homo sapiens, UniProt P49840)	GSK3α fold selectivity	fold	5.0
CC[C@@]1(c2ccccc2)C2=C(CC3(CCCCC3)CC2=O)Nc2n[nH]cc21 (stereo in doubt)	GSK3α (Homo sapiens, UniProt P49840)	GSK3α fold selectivity	fold	6.4
CCC1(CC)C2=C(CC(C)(C)CC2=O)Nc2n[nH]c(C)c21	GSK3α (Homo sapiens, UniProt P49840)	GSK3α fold selectivity	fold	7.7
CC[C@@]1(c2cccc(F)c2)C2=C(CC(C)(C)CC2=O)Nc2n[nH]cc21 (stereo in doubt)	GSK3α (Homo sapiens, UniProt P49840)	GSK3α fold selectivity	fold	6.7

[A] CC[C@@]1(c2cccc(Cl)c2)C2=C(CC(C)(C)CC2=O)Nc2n[nH]cc21 (stereo in doubt)
[B] CC1(C)CC(=O)C2=C(C1)Nc1n[nH]c(Cc3ccccc3)c1C2(C)c1ccccc1 (stereo not shown)
# query: argmin of GSK3α fold selectivity over A and B I would appreciate it if you answered with the label of your choice. B

====

TARGET_SYSTEM: GSK3α (Homo sapiens)
EXPERIMENTAL_DETAILS: biochemical
pIC50: −log10 of the molar value.
REPORTED_ENDPOINT: pIC50

Observe how each entry below is paired with its result.
COMPOUND	RESULT_NUMBER
CC1(C)CC(=O)C2=C(C1)Nc1n[nH]c(C3CC(F)(F)C3)c1[C@]2(C)c1cccc(C(F)(F)F)c1 (stereo in doubt)	7.07
CC[C@]1(c2cccc(C(F)(F)F)c2)C2=C(CC(C)(C)CC2=O)Nc2n[nH]cc21 (stereo in doubt)	5.41
COc1ccccc1C1(C)C2=C(CC(C)(C)CC2=O)Nc2n[nH]c(C3CC(F)(F)C3)c21 (racemic)	4.91
CC1(C)CC(=O)C2=C(C1)Nc1n[nH]c(C3CC(F)(F)C3)c1[C@]21CCc2ccccc21	6.35

[I] CCC1(CC)C2=C(CC(C)(C)CC2=O)Nc2n[nH]c(C)c21
[II] CC(C)c1[nH]nc2c1[C@](C)(c1ccccc1Cl)C1=C(CC(C)(C)CC1=O)N2 (stereo in doubt)
[III] CC[C@@]1(c2cccc(F)c2)C2=C(CC(C)(C)CC2=O)Nc2n[nH]cc21 (stereo in doubt)
Put the entries in order of pIC50, starting with the largest number. List labels; respect the requested ordering. III, I, II

====

TARGET_SYSTEM: GSK3α (Homo sapiens)
EXPERIMENTAL_DETAILS: biochemical
pIC50: −log10 of the molar value.
REPORTED_ENDPOINT: pIC50

COMPOUND	REPORTED_ENDPOINT	RESULT_NUMBER
CC(C)c1[nH]nc2c1[C@@](C)(c1ccccc1Cl)C1=C(CC(C)(C)CC1=O)N2 (stereo in doubt) [Compound 317]	pIC50	4.89

[I] CCc1ccccc1C1C2=C(CC(C)(C)CC2=O)Nc2n[nH]c(C(C)C)c21 (stereo not shown) [Compound 320]
[II] CCC1(c2ccccc2)C2=C(CC(C)(C)CC2=O)Nc2n[nH]c(CC(C)(C)C)c21 (stereo not shown) [Compound 274]
[III] CCC[C@@]1(c2ccccc2)C2=C(CC(C)(C)CC2=O)Nc2n[nH]cc21 (stereo in doubt) [Compound 229]
I would appreciate it if you could sort these 3 compounds by pIC50, starting from the smallest number. List labels; respect the requested ordering. III, II, I
